# assay info: A quantitative high throughput screen for small molecules that induce DNA re-replication in MCF 10a normal breast cells. Further: nearly all actives have a fitted effect of over 50% in size.
# condition info: MCF 10A DNA re-replication, Hoechst nuclear intensity, 48 h; series mostly up to 46.1 µM
The campaign covered roughly 350,000 compounds. About 9,900 (2.8%) were called active. Roughly 15% stayed inconclusive and do not appear here. The call rests on the fitted dose curve; in most records, active means well fitted activation curve with a large enough effect; inconclusive means small, poorly fitted or top-dose-only effect; inactive means no such curve, though single readings can be large or run the other way. The sample as a whole holds a higher share of actives than the screen did.
Output constraint: value belongs to active, inactive

| compound | cat |
| --- | --- |
| c1ccc(C(CN2CCCCC2)c2ccccc2)cc1 | inactive |
| CC(=O)C1(O)CCC2C3CCC4=C(Cl)C(=O)CCC4(C)C3CCC21C (configuration not stated) | inactive |
| CCN1C(=O)NC(=O)C2(CCCC2)C1=O | inactive |
| COC1=C[C@@H]2[C@@H]3Cc4ccc(OC)c(O)c4[C@]2(CCN3C)CC1=O | inactive |
| N#Cc1ccc(Cn2cc(C(=O)c3ccco3)c3ccccc32)cc1 | inactive |

q: # fetch the recorded call for CC[N+]1(CCOC(=O)C(O)(c2ccccc2)c2ccccc2)CCCCC1 here
a: inactive

q: What did this assay record as the result for C[C@@H]1C[C@@H]2O[C@H]2/C=C\C=C\C(=O)Cc2c(Cl)c(O)cc(O)c2C(=O)O1 ?
a: active

q: Test call for this compound, please: CCOC(=O)CC(SP1(=S)OCC2(CCCCO2)C(C2CCCCO2)O1)C(=O)OCC (configuration not stated)
a: inactive

q: State the result this test recorded for CC1CCCN1CCC(C(N)=O)(c1ccccc1)c1ccccc1 (configuration not stated) .
a: inactive

q: For O=c1[nH]c(CN2CC=C(c3ccccc3)CC2)nc2scc(-c3cccs3)c12 , what call appears in the results of this test?
a: active
